# Assay Summary: chemical genetic growth profiling, strain panel (AID 1159580);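 note: tested at 20 µM; growth read once vehicle control cultures reached saturation at 30 °C; 1 = growth at the plate median or of vehicle wells; lower values mean less growth of the strain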
# Run Conditions: S. cerevisiae deletion strains, growth OD, locus YPL051W, strain arl3
Screen size: about 5,500 compounds; about 2,000 (36%) were called active. Not shown: some 18% with an inconclusive outcome. Cut-off read from the data, not from the text of the source: active = normalized growth mostly below about 0.91 (no sharp cut-off); inconclusive = no clear call, values can overlap the other calls; inactive = mostly above about 0.92. The list shows a part of the results.
// one of 1 for active, -1 for inactive, no free text

Answered cases to consult:
CC1=NCCc2c1[nH]c1cc(O)ccc21: -1
COC(=O)C1=C(C)NC(C)=C(C(=O)OCC(C)C)C1c1ccccc1[N+](=O)[O-] (stereo not given): 1
COc1ccc(-c2cc(=O)c3c(OC(C)=O)cc(OC(C)=O)cc3o2)cc1: -1
CC(C)Oc1ccc2c(=O)cc(-c3ccccc3)oc2c1: 1

*Q* Give the logged outcome of this assay for the following compound: COC(=O)C1=C(C)NC(C)=C(C(=O)OC)C1c1ccccc1[N+](=O)[O-]
*A* 1

*Q* Give the logged outcome of this assay for the following compound: CC(=O)O.CC(=O)O.[Cd]
*A* 1

*Q* Give the logged outcome of this assay for the following compound: CC(=O)O[C@@H]1CC2C(C)(C)C(=O)CC[C@]2(C)C2CC[C@@]3(C)[C@H](c4ccoc4)OC(=O)C4OC43[C@@]21C (stereo not given in full)
*A* -1

*Q* Give the logged outcome of this assay for the following compound: COC(=O)C1=C(C)NC(C)=C(C(=O)OCCN(C)Cc2ccccc2)C1c1cccc([N+](=O)[O-])c1 (stereo not given)
*A* -1

*Q* Give the logged outcome of this assay for the following compound: OC1C(O)C(O)C(O)C(O)C1O (stereo not given)
*A* -1

*Q* Give the logged outcome of this assay for the following compound: Cn1nnnc1SCC1=C(C(=O)O)N2C(=O)C(NC(=O)C(O)c3ccccc3)C2SC1 (stereo not given)
*A* -1

*Q* Give the logged outcome of this assay for the following compound: CC(=O)O[C@H]1C[C@@H](O)C(C)(C)C2C[C@@H](OC(C)=O)[C@]3(C)C(CC[C@@]4(C)[C@H](c5ccoc5)OC(=O)C5OC543)[C@]21C (stereo not given in full)
*A* -1

*Q* Give the logged outcome of this assay for the following compound: O=c1c(-c2cc(O)c(O)c(O)c2)coc2cc(O)c(O)c(O)c12
*A* 1

*Q* Give the logged outcome of this assay for the following compound: COc1ccc(-c2cc(=O)c3ccccc3o2)cc1OC
*A* 1

*Q* Give the logged outcome of this assay for the following compound: CC(=O)Oc1ccc(-c2cc(=O)c3c(OC(C)=O)cc(OC(C)=O)cc3o2)cc1
*A* -1

*Q* Give the logged outcome of this assay for the following compound: COc1ccc(-c2cc(=O)c3ccccc3o2)cc1
*A* 1

*Q* Give the logged outcome of this assay for the following compound: CN(N=O)C(=O)N[C@@H]1[C@@H](O)[C@H](O)[C@@H](CO)O[C@@H]1O
*A* -1

*Q* Give the logged outcome of this assay for the following compound: NS(=O)(=O)c1cc2c(cc1C(F)(F)F)NCNS2(=O)=O
*A* -1

*Q* Give the logged outcome of this assay for the following compound: CC1(C)O[C@@H]2CC3C4C[C@H](F)C5=CC(=O)C=C[C@]5(C)[C@@]4(F)[C@@H](O)C[C@]3(C)[C@]2(C(=O)CO)O1 (stereo not given in full)
*A* -1

*Q* Give the logged outcome of this assay for the following compound: CC1=C2C(=CO[C@H](C)[C@H]2C)C(=O)C(C(=O)O)=C1O
*A* -1

*Q* Give the logged outcome of this assay for the following compound: CC1(C)O[C@@H]2CC3C4C[C@H](F)C5=CC(=O)C=CC5(C)C4C(O)CC3(C)[C@]2(C(=O)CO)O1 (stereo not given in full)
*A* -1

====

# Assay Summary: chemical genetic growth profiling, strain panel (AID 1159580);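 note: tested at 20 µM; growth read once vehicle control cultures reached saturation at 30 °C; 1 = growth at the plate median or of vehicle wells; lower values mean less growth of the strain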
# Run Conditions: S. cerevisiae deletion strains, growth OD, locus YLR371W, strain rom2
Hit rate of the full screen: of about 5,500 compounds, about 2,000 (36%) were called active. Another 18% or so got no clear call; they are omitted. Rule as the data show it: active = normalized growth mostly below about 0.91 (no sharp cut-off); inconclusive = no clear call, values can overlap the other calls; inactive = mostly above about 0.92. The list shows a part of the results.
// one of active, inactive, no free text

Answered cases to consult:
N[C@@H]1CONC1=O: inactive
CCn1cc(C(=O)O)c(=O)c2cc(F)c(N3CCNCC3)cc21: inactive
CC(N)Cc1ccc(O)cc1 (stereo unspecified): inactive
COc1ccc(-c2cc(=O)c3cc(OC)ccc3o2)cc1: inactive
O=c1c(-c2cc(O)c(O)c(O)c2)coc2cc(O)c(O)c(O)c12: active
CC(=O)CC(c1ccccc1)c1c(O)c2ccccc2oc1=O (stereo unspecified): inactive
CCOC(=O)C1C(C=C(C)C)C1(C)C (stereo unspecified): inactive
CC(=O)O[C@H]1C[C@@]2(C)[C@H](c3ccoc3)OC(=O)[C@H]3O[C@]32[C@@]2(C)C1[C@]1(C)C(C[C@H]2OC(C)=O)C(C)(C)[C@H](OC(C)=O)C[C@@H]1OC(C)=O (stereo partly specified): inactive

*Q* Give the logged outcome of this assay for the following compound: CC(C)Oc1ccc2c(=O)cc(-c3ccccc3)oc2c1
*A* active

*Q* Give the logged outcome of this assay for the following compound: COc1ccc(-c2cc(=O)c3ccccc3o2)cc1OC
*A* inactive

*Q* Give the logged outcome of this assay for the following compound: CC(=O)N(O)CCCCCNC(=O)CCC(=O)N(O)CCCCCNC(=O)CCC(=O)N(O)CCCCCN
*A* inactive

*Q* Give the logged outcome of this assay for the following compound: Nc1nc(N)c2nc(-c3ccccc3)c(N)nc2n1
*A* inactive

*Q* Give the logged outcome of this assay for the following compound: CN(N=O)C(=O)N[C@@H]1[C@@H](O)[C@H](O)[C@@H](CO)O[C@@H]1O
*A* inactive

*Q* Give the logged outcome of this assay for the following compound: COc1c(O)cc2c(-c3ccccc3)cc(=O)oc2c1OC
*A* inactive

====

Entries annotated with measured normalized growth
# Assay Summary: chemical genetic growth profiling, strain panel (AID 1159580);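 note: tested at 20 µM; growth read once vehicle control cultures reached saturation at 30 °C; 1 = growth at the plate median or of vehicle wells; lower values mean less growth of the strain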
# Run Conditions: S. cerevisiae deletion strains, growth OD, locus YCR088W, strain abp1, stronger effect = lower value
About 2,000 (36%) of roughly 5,500 compounds were called active. Another 18% or so got no clear call; they are omitted. Some of the results follow.
The response must contain the number and no unit.

COC(=O)C1=C(C)NC(C)=C(C(=O)OCCN(C)Cc2ccccc2)C1c1cccc([N+](=O)[O-])c1 (stereo unspecified): 0.984
CC1=C2C(=CO[C@H](C)[C@H]2C)C(=O)C(C(=O)O)=C1O: 0.973
N[C@@H]1CONC1=O: 0.981
COC(=O)C1=C(C)NC(C)=C(C(=O)OC)C1c1ccccc1[N+](=O)[O-]: 0.955
NCC(=O)CCC(=O)O: 0.987

We now examine a further molecule.
*Q* Need normalized growth, item COC(=O)C1=C(C)NC(C)=C(C(=O)OCC(C)C)C1c1ccccc1[N+](=O)[O-] (stereo unspecified)
*A* 0.39

====

Entries annotated with measured normalized growth
# Assay Summary: chemical genetic growth profiling, strain panel (AID 1159580);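 note: tested at 20 µM; growth read once vehicle control cultures reached saturation at 30 °C; 1 = growth at the plate median or of vehicle wells; lower values mean less growth of the strain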
# Run Conditions: S. cerevisiae deletion strains, growth OD, locus YFR010W, strain ubp6, stronger effect = lower value
Hit rate of the full screen: of about 5,500 compounds, about 2,000 (36%) were called active. Another 18% or so got no clear call; they are omitted. The list shows a part of the results.
The response must contain the number and no unit.

*Q* Need normalized growth, item CN(N=O)C(=O)N[C@@H]1[C@@H](O)[C@H](O)[C@@H](CO)O[C@@H]1O
*A* 0.954

*Q* Need normalized growth, item CC[N+]1(C)CCCC(OC(=O)C(O)(c2ccccc2)c2ccccc2)C1 (stereo unspecified)
*A* 1.03

*Q* Need normalized growth, item COc1ccc(-c2cc(=O)c3cc(OC)ccc3o2)cc1
*A* 0.906

*Q* Need normalized growth, item O=C(O)/C=C(\CC(=O)O)C(=O)O
*A* 0.991

*Q* Need normalized growth, item CC(=O)[C@H]1CCC2C3CC=C4C[C@@H](O)CC[C@]4(C)C3CC[C@@]21C (stereo partly specified)
*A* 1.05

*Q* Need normalized growth, item OC1C(O)C(O)C(O)C(O)C1O (stereo unspecified)
*A* 1

*Q* Need normalized growth, item C=C1C2CC[C@@]3(C)[C@H](c4ccoc4)OC(=O)C[C@]13O[C@H]1CC(=O)C(C)(C)[C@H](C(O)C(=O)OC)[C@@]21C (stereo partly specified)
*A* 0.976

*Q* Need normalized growth, item COc1ccc(-c2cc(=O)c3c(O)c(OC)c(OC)c(OC)c3o2)cc1
*A* 1

*Q* Need normalized growth, item O=c1c2ccccc2oc2ccccc12
*A* 0.915

*Q* Need normalized growth, item O=C1c2c(O)ccc(O)c2C(=O)c2c(NCCNCCO)ccc(NCCNCCO)c21
*A* 0.564

*Q* Need normalized growth, item CCCN1C[C@H](CSC)C[C@@H]2c3cccc4[nH]cc(c34)C[C@H]21
*A* 0.987

*Q* Need normalized growth, item COC(=O)C1=C(C)NC(C)=C(C(=O)OCC(C)C)C1c1ccccc1[N+](=O)[O-] (stereo unspecified)
*A* 0.382

*Q* Need normalized growth, item CC(=O)Nc1ccc(OC(=O)c2ccccc2O)cc1
*A* 0.944

*Q* Need normalized growth, item C=CCCCCCCCCCCCC(O)CC(O)CO (stereo unspecified)
*A* 1

*Q* Need normalized growth, item O=C(O)c1cc(=O)c2ccccc2o1
*A* 0.976

*Q* Need normalized growth, item COc1ccc2cc3[n+](cc2c1OC)CCc1cc2c(cc1-3)OCO2
*A* 0.992

*Q* Need normalized growth, item CCN1CCN(c2cc3c(cc2F)c(=O)c(C(=O)O)cn3C2CC2)CC1
*A* 1.01

Origin of measurements: PubChem BioAssay AID1159580
